Consider the following compounds; for each one, report its HepG2 cytotoxicity TC50 Galactose.
system: HepG2 cells; test: HepG2 cytotoxicity (CellTiter-Glo, 72 h); assay type: cell-based, human; conditions: human, 72 h
Marks after values point to notes of the source that are not given here.

Please review the entries below; each comes with its answer.
1. COC(=O)c1c(NC(NC(=O)c2cccs2)C(=O)c2ccccc2)sc(C(C)=O)c1C (stereo not drawn) [TPN-0073588] ... >100 ^c µM
2. O=C(COc1ccccc1)NC12CC3CC(CC(C3)C1)C2 [TPN-0006211] ... 43 ± 1 ^b µM
3. CCc1ccccc1NC(=O)c1c(NC(=O)c2cccc(Cl)c2)sc2c1CCC2 [TPN-0073585] ... >25 ^c µM

Required: HepG2 cytotoxicity TC50 Galactose, one value per compound below.
1. COc1c(Cl)ccc(Cl)c1C(=O)Nc1sc2c(c1C(N)=O)CCCC2 [TPN-0073571]
2. Cc1ccc(NC(=O)CCN2CCN(c3ccc(Cl)cc3)CC2)cc1 [TPN-0095037]
3. O=C(CN(C1=NCCCS1)c1ccccc1)c1ccc(Cl)c(Cl)c1 [TPN-0095036]
4. CC(C)c1ccc(OCC(=O)Nc2nccs2)cc1 [TPN-0006217]
5. Clc1ccc(Nc2nc(-c3cccs3)cs2)cc1 [TPN-0095025]
6. Cn1nc(C2CC2)cc1C(=O)Nc1ccc(I)cc1 [TPN-0089788]

stdout:
["26 ± 5.0 ^b µM", "56 ± 4 ^b µM", "20 ± 0.47 ^c µM", "64 ± 1.5 ^b µM", "28 ± 1.5 ^b µM", "30 ± 12 ^e µM"]

----------
Consider the following compounds; for each one, report its HepG2 cytotoxicity TC50 Galactose.
test system: HepG2 cells; test: HepG2 cytotoxicity (CellTiter-Glo, 72 h); format: cell-based, human; settings: human, 72 h
Marks after values point to notes of the source that are not given here.

1. Brc1c(-c2ccccc2)nc2ccccn12 [TPN-0095038] ... >100 ^c µM
2. CCOc1ccc(NC(=S)Nc2ccc(C)c(C#N)c2)cc1 [TPN-0073063] ... 34 ± 6.5 ^e µM
3. Cc1cc(C)nc(NC(=N)Nc2ccc(Br)cc2)n1 [TPN-0073061] ... 22 ± 3.1 ^c µM
4. O=C(c1c(F)cccc1F)N1CCN(c2cc(N3CCCCCC3)c(F)cc2[N+](=O)[O-])CC1 [TPN-0095035] ... 21 ± 2.0 ^b µM
5. O=c1c(/C=N/Cc2cccnc2)c(NCc2cccnc2)nc2ccccn12 [TPN-0095033] ... >100 ^c µM
6. O=C(CN1CCC(Cc2ccccc2)CC1)Nc1ccc(Cl)cn1 [TPN-0095042] ... 19 ± 1.0 ^b µM
7. O=C(Nc1ccc(Cl)c(Cl)c1)c1cccs1 [TPN-0073578] ... 4.7 ± 0.54 ^c µM
8. CCOc1ccc(NC(=S)Nc2ccccc2)cc1 [TPN-0073062] ... >100 ^e µM

Required: HepG2 cytotoxicity TC50 Galactose, one value per compound below.
1. OCc1cn(-c2ccccc2)nc1-c1ccc(Br)cc1 [TPN-0073563]
2. Cc1ccc(Nc2nc(-c3ccc(Cl)cc3)cs2)cc1Cl [TPN-0095032]

stdout:
1: 34 ± 1.9 ^c µM; 2: 19 ± 0.5 ^b µM

----------
Consider the following compounds; for each one, report its IC50 at 72 h.
experiment: HepG2 cytotoxicity (CellTiter-Glo, 72 h); format: cell-based, human; details: human, HepG2 cytotoxicity IC50 Galactose

Please review the entries below; each comes with its answer.
1) O=C(Nc1ccc(Cl)c(Cl)c1)c1cccs1 ... 4.7 µM
2) Cc1cc(C)nc(NC(=N)Nc2ccc(Br)cc2)n1 ... 22 µM
3) Nc1c(C(=O)N2CCCCC2)sc2nc3c(cc12)CCCC3 ... > 100 µM
4) OCc1cn(-c2ccccc2)nc1-c1ccc(Br)cc1 ... 35 µM
5) CC(C)c1ccc(OCC(=O)Nc2nccs2)cc1 ... 64 µM

Required: IC50 at 72 h, one value per compound below.
1. OCc1cn(-c2ccc(F)cc2)nc1-c1ccc(Cl)cc1
2. COc1c(Cl)ccc(Cl)c1C(=O)Nc1sc2c(c1C(N)=O)CCCC2
3. Cc1c(Cc2ccccc2)sc(NC(=O)c2ccccc2Cl)c1C(N)=O

stdout:
57 µM
26 µM
42 µM

Required: IC50 at 72 h, one value per compound below.
1. O=C(Nc1ccc(C(F)(F)F)cc1)Nc1cccc(Cl)c1
2. COc1ccc(OCC(=O)Nc2sc3c(c2C(=O)NC2CCS(=O)(=O)C2)CCCC3)cc1 (stereo not drawn)
3. O=C(Nc1ccc(Cl)cc1)Nc1ccc(Nc2ccccc2)cc1
4. OCc1cn(-c2ccc(Cl)cc2)nc1-c1ccc(Cl)cc1

stdout:
1. 5.5 µM
2. > 100 µM
3. > 100 µM
4. 31 µM

----------
test system: RAW264.7 cells; assay: Macrophage viability in the same high content assay; conditions: infected RAW264.7 macrophages, 72 h
Marks after values point to notes of the source that are not given here.
property.measured: Intracellular activity Cytotoxicity TC50

Please review the entries below; each comes with its answer.
1. OCc1cn(-c2ccccc2)nc1-c1ccc(Br)cc1 [TPN-0073563] ... 28 ± 7.0 ^e µM
2. O=C(CN1CCC(Cc2ccccc2)CC1)Nc1ccc(Cl)cn1 [TPN-0095042] ... 21 ± 9.3 ^c µM
3. Cc1cc(C)nc(NC(=N)Nc2ccc(Br)cc2)n1 [TPN-0073061] ... 18 ± 4.3 ^d µM
4. Clc1c(-c2ccccc2)nc2ccccn12 [TPN-0095030] ... >100 ^b µM
5. CCOC(=O)c1sc(NC(=O)Cc2c(F)cccc2Cl)nc1C [TPN-0089695] ... 45 ± 17 ^b µM
6. Cc1ccc(Nc2nc(C(N)=O)c(N)s2)cc1 [TPN-0095028] ... 54 ± 20 ^b µM
7. CCc1ccc(OCC(=O)Nc2cccc3c2C(=O)OC3)cc1 [TPN-0006204] ... >100 ^b µM
8. CCc1ccccc1NC(=O)c1c(NC(=O)c2cccc(Cl)c2)sc2c1CCC2 [TPN-0073585] ... 9.4 ± 1.9 ^c µM
9. Clc1ccc(Nc2nc(-c3cccs3)cs2)cc1 [TPN-0095025] ... 26 ± 7.1 ^c µM

Please examine the following record next.
Input COc1ccc(C2Oc3ccc(Cl)cc3C3=C2C(c2ccc(OC)cc2)n2ncnc2N3)cc1 (stereo not shown) [TPN-0095029] . Output Intracellular activity Cytotoxicity TC50: >50 ^b µM

----------
Consider the following compounds; for each one, report its IC50.
tested on: M. tuberculosis; assay: High content assay of intracellular M. tuberculosis growth in infected RAW264.7 macrophages; format: cell-based, Mycobacterium tuberculosis H37Rv-LP; conditions: Mycobacterium tuberculosis, RAW264.7, read-out: Intracellular Mtb IC50, in RAW264.7 macrophages; SAR tables 4-8
Numbers only, in µM.

1) CCOc1ccc(NC(=S)Nc2ccc(C)c(C#N)c2)cc1 ... 0.3
2) CCOc1ccc(NC(=S)Nc2ccccc2)cc1 ... 0.4
3) Cc1cc(C)nc(NC(=N)Nc2ccc(Br)cc2)n1 ... 1.3

Please examine the following record next.
Input `Nc1c(C(=O)Nc2nccs2)sc2nc3c(cc12)CCC3` . Output IC50: 1.1

----------
Consider the following compounds; for each one, report its Intracellular activity Cytotoxicity TC50.
test system: RAW264.7 cells; assay: Macrophage viability in the same high content assay; conditions: infected RAW264.7 macrophages, 72 h
Marks after values point to notes of the source that are not given here.

1) O=C(CSc1ccccc1)Nc1ccc(Br)cc1 [TPN-0006205] ... 57 ± 23 ^c µM
2) OCc1cn(-c2ccc(Cl)cc2)nc1-c1ccc(Cl)cc1 [TPN-0073562] ... 16 ± 11 ^c µM
3) CCOC(=O)c1nnn(-c2nc(N3CCCC3)nc(N3CCCC3)n2)c1-c1ccccc1 [TPN-0095040] ... 31 ± 18 ^b µM
4) COc1ccc(C(=O)c2sc(NCc3ccccc3)nc2N)cc1 [TPN-0095041] ... 13 ± 5.5 ^c µM
5) Cc1ccc(Nc2nc(-c3ccc(Cl)cc3)cs2)cc1Cl [TPN-0095032] ... 9.9 ± 0.98 ^c µM

Required: Intracellular activity Cytotoxicity TC50, one value per compound below.
1. O=C(c1ccc(Cl)c(Cl)c1)N1CCN(c2ccc([N+](=O)[O-])c3cccnc23)CC1 [TPN-0095034]
2. Cn1nc(C2CC2)cc1C(=O)Nc1ccc(I)cc1 [TPN-0089788]
3. Fc1ccc(C2CC(c3ccc(Cl)cc3Cl)n3ncnc3N2)cc1 (stereo not drawn) [TPN-0095039]
4. O=C(CSc1ccc(Cl)cc1)Nc1ccc(F)c(Cl)c1 [TPN-0006216]
5. COc1ccc(CNC(=O)c2c(C)nc3ccccn23)cc1 [TPN-0095027]

stdout:
>100 ^d µM
>100e µM
24 ± 6.1 ^c µM
>100 ^d µM
72 ± 16 ^d µM

Required: Intracellular activity Cytotoxicity TC50, one value per compound below.
1. Cc1ccc(NC(=O)CCN2CCN(c3ccc(Cl)cc3)CC2)cc1 [TPN-0095037]
2. CCCOc1ccc(C(=O)Nc2sc(C)c(C)c2C(N)=O)cc1 [TPN-0073576]
3. O=c1c(/C=N/Cc2cccnc2)c(NCc2cccnc2)nc2ccccn12 [TPN-0095033]
4. Cc1sc(NC(=O)c2ccc(OC(C)C)cc2)c(C(N)=O)c1C [TPN-0073559]
5. COC(=O)c1c(NC(NC(=O)c2cccs2)C(=O)c2ccccc2)sc(C(C)=O)c1C (stereo not drawn) [TPN-0073588]
6. OCc1cn(-c2ccc(F)cc2)nc1-c1cc(F)c(Cl)cc1Cl [TPN-0073565]
7. CC(C)c1ccc(OCC(=O)Nc2nccs2)cc1 [TPN-0006217]
8. Cc1ccc(OCC(=O)Nc2ccc(N3CCCCC3)c(Cl)c2)cc1 [TPN-0006206]

stdout:
1: 54 ± 26 ^c µM; 2: >100 ^d µM; 3: >100 ^c µM; 4: 50 ± 24 ^d µM; 5: 67 ± 8.5 ^b µM; 6: >100 ^d µM; 7: 75 ± 16 ^d µM; 8: 57 ± 20 ^b µM

The measurements presented in this section are drawn from paper PMC8762250.
